# SYSTEM NAME: Integrin alpha-V/beta-6 (Homo sapiens, UniProt P06756+P18564)
# Sequence (P06756 31-889 limits assumed): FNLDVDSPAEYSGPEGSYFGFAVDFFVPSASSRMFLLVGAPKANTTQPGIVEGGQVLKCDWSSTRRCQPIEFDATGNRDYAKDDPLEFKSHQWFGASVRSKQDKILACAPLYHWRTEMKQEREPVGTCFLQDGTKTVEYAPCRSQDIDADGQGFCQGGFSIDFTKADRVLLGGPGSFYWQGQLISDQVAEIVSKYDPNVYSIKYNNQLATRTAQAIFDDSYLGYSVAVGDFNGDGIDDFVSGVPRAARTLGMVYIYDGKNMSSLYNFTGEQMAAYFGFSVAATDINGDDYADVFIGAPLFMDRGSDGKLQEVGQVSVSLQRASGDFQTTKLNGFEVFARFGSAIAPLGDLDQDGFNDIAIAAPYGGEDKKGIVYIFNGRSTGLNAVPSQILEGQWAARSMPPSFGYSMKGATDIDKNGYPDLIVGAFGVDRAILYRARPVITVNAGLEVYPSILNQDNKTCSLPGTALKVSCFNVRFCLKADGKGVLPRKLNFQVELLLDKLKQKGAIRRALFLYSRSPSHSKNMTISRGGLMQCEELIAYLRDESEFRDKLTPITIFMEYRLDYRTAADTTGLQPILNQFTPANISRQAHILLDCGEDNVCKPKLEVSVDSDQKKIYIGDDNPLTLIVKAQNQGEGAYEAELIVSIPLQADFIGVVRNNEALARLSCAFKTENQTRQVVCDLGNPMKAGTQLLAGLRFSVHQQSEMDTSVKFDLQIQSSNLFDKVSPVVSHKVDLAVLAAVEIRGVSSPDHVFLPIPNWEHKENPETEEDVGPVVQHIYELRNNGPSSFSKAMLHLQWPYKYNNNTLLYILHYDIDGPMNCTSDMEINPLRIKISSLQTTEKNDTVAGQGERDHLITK
# Sequence (P06756 891-1048 limits assumed): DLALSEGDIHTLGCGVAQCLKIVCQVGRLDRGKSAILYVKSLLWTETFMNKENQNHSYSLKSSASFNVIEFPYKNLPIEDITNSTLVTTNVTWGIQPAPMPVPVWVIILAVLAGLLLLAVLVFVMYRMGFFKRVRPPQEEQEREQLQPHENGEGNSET
# Sequence (P18564 22-788 limits assumed): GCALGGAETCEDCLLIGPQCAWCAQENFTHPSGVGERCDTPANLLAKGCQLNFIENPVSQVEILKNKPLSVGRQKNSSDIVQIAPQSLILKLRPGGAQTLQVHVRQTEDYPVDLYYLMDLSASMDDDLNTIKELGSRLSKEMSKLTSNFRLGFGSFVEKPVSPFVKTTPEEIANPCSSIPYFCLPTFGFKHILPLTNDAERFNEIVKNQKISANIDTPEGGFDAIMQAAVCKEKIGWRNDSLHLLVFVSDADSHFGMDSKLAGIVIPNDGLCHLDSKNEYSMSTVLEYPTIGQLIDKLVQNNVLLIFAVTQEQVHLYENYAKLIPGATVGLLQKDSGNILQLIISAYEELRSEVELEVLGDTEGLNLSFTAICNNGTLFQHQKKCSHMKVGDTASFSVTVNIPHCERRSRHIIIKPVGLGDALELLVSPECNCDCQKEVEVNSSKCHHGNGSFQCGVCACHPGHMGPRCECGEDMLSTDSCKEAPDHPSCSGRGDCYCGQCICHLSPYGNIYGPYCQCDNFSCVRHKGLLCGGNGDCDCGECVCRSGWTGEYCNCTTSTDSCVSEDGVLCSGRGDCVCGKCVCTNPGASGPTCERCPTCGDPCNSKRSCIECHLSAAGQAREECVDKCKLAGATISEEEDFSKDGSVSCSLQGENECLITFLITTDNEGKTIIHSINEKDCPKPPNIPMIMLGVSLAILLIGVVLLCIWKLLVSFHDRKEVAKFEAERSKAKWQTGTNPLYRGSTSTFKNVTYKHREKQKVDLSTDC
# TEST DETAILS: Inhibition of integrin alphavbeta6 (unknown origin)-mediated K562 cell adhesion to LAPb1 coated surface by fluorescence analysis
# Format: cell-based
pIC50: −log10 of the molar value.
READOUT NAME: pIC50

molecule="O=C(O)CC(NC(=O)CCCCc1ccc2c(n1)NCCC2)c1ccc(OC(F)(F)F)cc1 (racemic)" reported_measurement=6.20
molecule="O=C(O)CC(NC(=O)CCCCc1ccc2c(n1)NCCC2)c1cc(Cl)cc(Cl)c1 (stereo in doubt; 37E1)" reported_measurement=5.20
molecule="Cc1ccccc1C(CC(=O)O)NC(=O)CCCCc1ccc2c(n1)NCCC2 (racemic)" reported_measurement=6.40
molecule="CS(=O)(=O)c1ccc(C(CC(=O)O)NC(=O)CCCCc2ccc3c(n2)NCCC3)cc1 (racemic)" reported_measurement=6.20
molecule="O=C(O)CC(NC(=O)CCCCc1ccc2c(n1)NCCC2)c1ccc(Cl)c(C(F)(F)F)c1 (racemic)" reported_measurement=7.00
molecule="O=C(O)CC(NC(=O)CCCCc1ccc2c(n1)NCCC2)c1ccc(F)cc1 (racemic)" reported_measurement=6.30
molecule="N=C(N)Nc1cccc(C(=O)NCC(=O)NC(CC(=O)O)c2cc(Cl)cc(Cl)c2)c1 (stereo not drawn)" reported_measurement=6.80
molecule="O=C(O)C[C@H](NC(=O)C(COCc1ccccc1)NC(=O)CCCCNc1ccccn1)c1cc(Cl)cc(Cl)c1 (stereo partly drawn)" reported_measurement=6.00
